# System: glycogen synthase kinase-3 (GSK3A per assay name; protocol says GSK3B)
# Experimental Details: GSK3 binders on small-molecule microarrays, primary screen, biochemical, small-molecule microarray, 635 nm fluorescence, GSK3A (AID 1103); note: the record names both GSK3A and GSK3B
# Condition: small-molecule microarray binding, fluorescence 635 nm; higher = more signal
So basically: composite z-score at 0.3 or higher? That is y. Lower than 0.3? That is n.

Use the examples below as a reference point.
CCOC(=O)[C@H](Cc1ccccc1)NC(=O)CCC1CC(OC(=O)NCCc2ccc(F)cc2)CC2(CCCC(COC(=O)NCCc3ccc(Cl)cc3)O2)O1 (some centres undefined); y
O=C1C[C@@H](O)[C@@H](O)[C@@H]2[C@@H]3C(=O)N(C[C@@H]4CCCO4)C(=O)[C@@H]3CC[C@H]12; y
CCCCC#C[C@@H]1C=C[C@H](Oc2ccc(C(=O)OC)cc2)[C@@H](COC(=O)OCC)O1; n
CO[C@@H]1COC(=O)[C@@H]2CCCN2C(=O)[C@@H](C)COC(=O)CC=C[C@H]1C; y
CC(C)CON=C1C[C@@H](O)[C@@H](O)[C@@H]2[C@@H]3C(=O)N(Cc4ccc5c(c4)OCO5)C(=O)[C@@H]3CC[C@H]12; y

Kindly determine if composite z-score recorded for CCc1cc2c(nc1CC)CCN(CCC(C)=NO[C@H](C)c1cn([C@@H]3COC[C@H]3O)nn1)C2 is above or exactly 0.3.
n

Again, but for C#CCCCON=C1C[C@@H](O)[C@@H](O)[C@@H]2[C@@H]3C(=O)N(c4cccc(Oc5ccccc5)c4)C(=O)[C@@H]3CC[C@H]12
n

Again, but for O=c1n(Cc2cc3c(cc2Cl)OCO3)c(=O)n2n1CC[C@@H]1C(=NOC[C@@H](O)COCc3ccco3)[C@H]3O[C@H]3[C@@H](O)[C@@H]12
y

Again, but for CCCNC(=O)OC[C@H]1O[C@H](CCON=C(C)CCC(=O)OC[C@H]2O[C@H](c3ccccc3)C=C[C@@H]2Oc2ccc(OC)cc2)C=C[C@@H]1Oc1ccc(OC)cc1
n

Again, but for CC(C)=CCCC(C)=CCON=C1C[C@@H](O)[C@@H](O)[C@@H]2[C@@H]3C(=O)N(c4ccc(F)cc4F)C(=O)[C@@H]3CC[C@H]12
y

Again, but for CCOC(=O)[C@H](CC(C)C)NC(=O)CCC1CC(OC(=O)NCc2cccc3ccccc23)CC2(CCCC(COC(=O)NCCOc3ccccc3)O2)O1 (some centres undefined)
y
